study.target: kinases (Homo sapiens, UniProt P09619)
Construct: purchased Eurofins/DiscoveRx; host or cells: E. coli BL21-derived host (T7 phage display) for most kinases; HEK-293 for the rest
Sequence (P09619 33-1106): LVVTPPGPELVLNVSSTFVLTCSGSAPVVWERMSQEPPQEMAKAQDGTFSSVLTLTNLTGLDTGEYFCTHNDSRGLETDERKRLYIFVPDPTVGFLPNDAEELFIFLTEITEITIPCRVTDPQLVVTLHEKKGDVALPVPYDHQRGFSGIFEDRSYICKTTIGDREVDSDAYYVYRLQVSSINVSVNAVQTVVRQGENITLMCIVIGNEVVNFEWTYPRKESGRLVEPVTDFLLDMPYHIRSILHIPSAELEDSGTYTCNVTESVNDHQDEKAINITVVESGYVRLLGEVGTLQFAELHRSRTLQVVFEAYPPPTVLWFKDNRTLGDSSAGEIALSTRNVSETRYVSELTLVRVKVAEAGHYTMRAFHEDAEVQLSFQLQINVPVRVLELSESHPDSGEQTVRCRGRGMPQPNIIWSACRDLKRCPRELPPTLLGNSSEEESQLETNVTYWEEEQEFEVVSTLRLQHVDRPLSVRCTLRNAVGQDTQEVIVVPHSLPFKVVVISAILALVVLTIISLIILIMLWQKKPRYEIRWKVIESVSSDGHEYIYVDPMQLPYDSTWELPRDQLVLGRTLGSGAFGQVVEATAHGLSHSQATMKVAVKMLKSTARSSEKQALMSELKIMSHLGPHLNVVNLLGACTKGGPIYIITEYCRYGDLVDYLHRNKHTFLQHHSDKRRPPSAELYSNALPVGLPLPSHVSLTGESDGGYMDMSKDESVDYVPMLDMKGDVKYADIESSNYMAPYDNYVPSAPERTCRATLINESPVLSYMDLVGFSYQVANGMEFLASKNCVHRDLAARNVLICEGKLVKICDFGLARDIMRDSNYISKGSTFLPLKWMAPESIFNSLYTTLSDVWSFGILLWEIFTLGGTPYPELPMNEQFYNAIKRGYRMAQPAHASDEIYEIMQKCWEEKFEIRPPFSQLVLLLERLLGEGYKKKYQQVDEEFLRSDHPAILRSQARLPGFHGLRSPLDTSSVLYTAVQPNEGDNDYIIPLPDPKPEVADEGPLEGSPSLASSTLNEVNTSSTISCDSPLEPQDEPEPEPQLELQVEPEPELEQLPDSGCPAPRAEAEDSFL
assay.text: KINOMEscan kinase binding assay (Eurofins/DiscoveRx), % Ctrl
applied.conditions: target PDGFRB; 1 μM
readout: % Ctrl, PDGFRB (% Ctrl)

smiles.record: Cc1cc2c([nH]1)/C=C1\C(=O)Nc3ccc(cc31)-c1c(C)nn(C)c1COCCN(C)C2=O
readout: % Ctrl, PDGFRB
measured.result: 96
--
smiles.record: Cc1cc2c([nH]1)/C=C1\C(=O)Nc3cc(Cl)c(cc31)OCCO[C@@H](C(=O)N1CCN(C)CC1)CN(C)C2=O
readout: % Ctrl, PDGFRB
measured.result: 95
--
smiles.record: Cc1nn(C)c2c1-c1ccc3c(c1)/C(=C/c1[nH]ccc1C(=O)N(C)CCCO2)C(=O)N3
readout: % Ctrl, PDGFRB
measured.result: 96

(P) Cc1cc2c([nH]1)/C=C1\C(=O)Nc3ccc(cc31)-c1c(noc1C)CNCCN(C)C2=O
(Q) CN1CCOCCOc2cc3c(cc2Cl)NC(=O)/C3=C\c2[nH]ccc2C1=O
(R) CN1CCSCCOc2cc3c(cc2Cl)NC(=O)/C3=C\c2[nH]ccc2C1=O
(S) Cc1cc2c([nH]1)/C=C1\C(=O)Nc3cnc(cc31)-c1cn[nH]c1CNCCN(C)C2=O
Order the 4 molecules from highest to lowest % Ctrl, PDGFRB. Return the labels ranked in the requested order, please.
P, Q, S, R
(P: 73 % Ctrl, Q: 32 % Ctrl, S: 10 % Ctrl, R: 0.5 % Ctrl)

* * *

study.target: kinases (Homo sapiens)
Construct: purchased Eurofins/DiscoveRx; host or cells: E. coli BL21-derived host (T7 phage display) for most kinases; HEK-293 for the rest
assay.text: KINOMEscan kinase binding assay (Eurofins/DiscoveRx), % Ctrl
applied.conditions: 1 μM; KIT-autoinhibited
readout: % Ctrl, KIT-autoinhibited (% Ctrl)

smiles.record: Cc1cc2c([nH]1)/C=C1\C(=O)Nc3ccc(cc31)-c1c(noc1C)COCCN(C)C2=O
readout: % Ctrl, KIT-autoinhibited
uom: % Ctrl
measured.result: 97

smiles.record: Cc1cc2c([nH]1)/C=C1\C(=O)Nc3ccc(cc31)O[C@@H](C)COCCN(C)C2=O
readout: % Ctrl, KIT-autoinhibited
uom: % Ctrl
measured.result: 100

smiles.record: Cc1cc2c([nH]1)/C=C1\C(=O)Nc3ccc(cc31)-c1cnn(C)c1CNCCN(C)C2=O
readout: % Ctrl, KIT-autoinhibited
uom: % Ctrl
measured.result: 95

smiles.record: Cc1cc2c([nH]1)/C=C1\C(=O)Nc3cc(Cl)c(cc31)OCCO[C@@H](C(=O)N(C)C)CN(C)C2=O
readout: % Ctrl, KIT-autoinhibited
uom: % Ctrl
measured.result: 72

* * *

study.target: kinases (Homo sapiens, UniProt P09619)
Construct: purchased Eurofins/DiscoveRx; host or cells: E. coli BL21-derived host (T7 phage display) for most kinases; HEK-293 for the rest
assay.text: KINOMEscan kinase binding assay (Eurofins/DiscoveRx), % Ctrl
applied.conditions: 1 μM; PDGFRB
readout: % Ctrl, PDGFRB (% Ctrl)

Would you please look over these solved cases?
compound: Cc1cc2c([nH]1)/C=C1\C(=O)Nc3ccc(cc31)OCCOCCN(C)C2=O [Ex.91]
measured.result: 55
//
compound: Cc1cc2c([nH]1)/C=C1\C(=O)Nc3ccc(cc31)-c1cnn(C)c1CN(C)CCN(C)C2=O [Ex. 126]
measured.result: 0

(P) Cc1cc2c([nH]1)/C=C1\C(=O)Nc3cc(Cl)c(cc31)OCCO[C@@H](C(=O)N[C@@H]1CCNC1)CN(C)C2=O [Ex. 136]
(Q) Cc1cc2c([nH]1)/C=C1\C(=O)Nc3ccc(cc31)CN(C)C(=O)COCCNC2=O [Ex.111]
// which entry has the larger % Ctrl, PDGFRB value, P or Q ? Pick one and reply with its label.
Q

* * *

study.target: kinases (Homo sapiens, UniProt P36888, D835H)
Construct: purchased Eurofins/DiscoveRx; host or cells: E. coli BL21-derived host (T7 phage display) for most kinases; HEK-293 for the rest
Sequence (P36888 27-993 D835H): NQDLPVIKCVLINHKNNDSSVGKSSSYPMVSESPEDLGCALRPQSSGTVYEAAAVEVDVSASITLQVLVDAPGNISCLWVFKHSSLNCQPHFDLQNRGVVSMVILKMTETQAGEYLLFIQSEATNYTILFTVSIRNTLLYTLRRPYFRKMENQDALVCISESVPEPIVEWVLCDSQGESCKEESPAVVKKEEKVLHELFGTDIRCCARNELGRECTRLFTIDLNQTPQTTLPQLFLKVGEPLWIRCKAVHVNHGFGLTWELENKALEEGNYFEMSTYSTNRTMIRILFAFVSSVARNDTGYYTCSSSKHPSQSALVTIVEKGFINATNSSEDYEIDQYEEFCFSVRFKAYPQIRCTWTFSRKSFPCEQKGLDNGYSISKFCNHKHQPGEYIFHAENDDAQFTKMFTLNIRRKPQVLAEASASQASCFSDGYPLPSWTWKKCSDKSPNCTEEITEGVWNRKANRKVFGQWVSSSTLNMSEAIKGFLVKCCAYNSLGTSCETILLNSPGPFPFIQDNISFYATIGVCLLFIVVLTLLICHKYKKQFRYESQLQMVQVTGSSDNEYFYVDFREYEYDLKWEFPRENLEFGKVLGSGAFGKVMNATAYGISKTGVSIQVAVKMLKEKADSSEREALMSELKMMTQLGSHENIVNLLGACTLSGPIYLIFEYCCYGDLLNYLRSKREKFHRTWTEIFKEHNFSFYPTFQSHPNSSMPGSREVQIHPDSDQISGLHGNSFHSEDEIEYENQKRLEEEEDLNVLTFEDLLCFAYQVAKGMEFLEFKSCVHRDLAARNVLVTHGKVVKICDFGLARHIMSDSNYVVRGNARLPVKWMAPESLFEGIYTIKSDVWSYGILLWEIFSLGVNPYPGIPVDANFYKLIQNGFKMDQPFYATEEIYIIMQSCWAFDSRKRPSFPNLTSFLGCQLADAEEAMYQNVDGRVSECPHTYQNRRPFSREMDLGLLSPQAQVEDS
assay.text: KINOMEscan kinase binding assay (Eurofins/DiscoveRx), % Ctrl
applied.conditions: target FLT3(D835H); 1 μM
readout: % Ctrl, FLT3(D835H) (% Ctrl)

Would you please look over these solved cases?
smiles.record: CN1CCOCCOc2cc3c(cc2Cl)NC(=O)/C3=C\c2[nH]ccc2C1=O
study.target: kinases (Homo sapiens, UniProt P36888, D835H)
measured.result: 0.8
--
smiles.record: Cc1cc2c([nH]1)/C=C1\C(=O)Nc3ccc(cc31)-c1c(C)nn(C)c1COCCN(C)C2=O
study.target: kinases (Homo sapiens, UniProt P36888, D835H)
measured.result: 5.7
--
smiles.record: CN1CCSCCOc2cc3c(cc2Cl)NC(=O)/C3=C\c2[nH]ccc2C1=O
study.target: kinases (Homo sapiens, UniProt P36888, D835H)
measured.result: 0.3
--
smiles.record: Cc1cc2c([nH]1)/C=C1\C(=O)Nc3ccc(cc31)-c1c(noc1C)CNCCN(C)C2=O
study.target: kinases (Homo sapiens, UniProt P36888, D835H)
measured.result: 14

(A) Cc1nn(C)c2c1-c1ccc3c(c1)/C(=C/c1[nH]ccc1C(=O)N(C)CCCO2)C(=O)N3
(B) Cc1cc2c([nH]1)/C=C1\C(=O)Nc3cnc(cc31)-c1cn[nH]c1CNCCN(C)C2=O
For the pair A and B , which entry has the numerically smaller recorded % Ctrl, FLT3(D835H)? Pick one and reply with its label.
B

* * *

study.target: kinases (Homo sapiens, UniProt P36888, D835V)
Construct: purchased Eurofins/DiscoveRx; host or cells: E. coli BL21-derived host (T7 phage display) for most kinases; HEK-293 for the rest
assay.text: KINOMEscan kinase binding assay (Eurofins/DiscoveRx), % Ctrl
applied.conditions: target FLT3(D835V); 1 μM
Experimental: Kinase binding assays were performed at Eurofins/DiscoveRx using the general KINOMEscan Protocol (Fabian, M. A. et al., “A small molecule-kinase interaction map for clinical kinase inhibitors,” Nat. Biotechnol. 2005, 23(3):329-36). For most assays, kinase-tagged T7 phage strains were prepared in an E. coli host derived from the BL21 strain. […] The kinase concentration in the eluates was measured by qPCR. […]
readout: % Ctrl, FLT3(D835V) (% Ctrl)

smiles.record: Cc1cc2c([nH]1)/C=C1\C(=O)Nc3cc(Cl)c(cc31)OCCO[C@@H](C(=O)N1CCN(C)CC1)CN(C)C2=O
uom: % Ctrl
% Ctrl, FLT3(D835V): 18
//
smiles.record: Cc1cc2c([nH]1)/C=C1\C(=O)Nc3ccc(cc31)-c1c(C)nn(C)c1COCCN(C)C2=O
uom: % Ctrl
% Ctrl, FLT3(D835V): 0.2
//
smiles.record: CN1CCOCCOc2cc3c(cc2Cl)NC(=O)/C3=C\c2[nH]ccc2C1=O
uom: % Ctrl
% Ctrl, FLT3(D835V): 0.3

(1) Cc1cc2c([nH]1)/C=C1\C(=O)Nc3ccc(cc31)-c1c(noc1C)CNCCN(C)C2=O
(2) CN1CCSCCOc2cc3c(cc2Cl)NC(=O)/C3=C\c2[nH]ccc2C1=O
(3) Cc1nn(C)c2c1-c1ccc3c(c1)/C(=C/c1[nH]ccc1C(=O)N(C)CCCO2)C(=O)N3
Order the 3 compounds from highest to lowest % Ctrl, FLT3(D835V). Return the labels ranked in the requested order, please.
3, 1, 2
